System: CEM cells HIV-1 protection, formazan growth assay
test_description: NCI AIDS Antiviral Assay
measured_metric: EC50

>>> value_reported("Cc1ccc(Nc2nc(C)c(C(/C=C/c3ccc(/C=C/C(=N/NC(=O)C[n+]4ccccc4)c4sc(Nc5ccc(C)cc5[N+](=O)[O-])nc4C)cc3)=N\\NC(=O)C[n+]3ccccc3)s2)c([N+](=O)[O-])c1")
"> 35.5 µM"
>>> value_reported("COc1ccc(-c2cc(-c3cc(C)cc(Cl)c3O)nc3[nH]c(=S)[nH]c(=S)c23)cc1")
"> 200 µM"
>>> value_reported("C[N+](C)(CCCCCC[N+](C)(C)CC(=O)O)CC(=O)O")
"> 550 µM"
>>> value_reported("S=C1SCN(C(c2ccccc2)c2ccccc2)CN1C(c1ccccc1)c1ccccc1")
"> 200 µM"
>>> value_reported("CC1=Cc2cc3[n-]c(cc4nc(cc5[n-]c(cc1n2)c(C)c5CCC(=O)O)C(CCC(=O)O)=C4C)cc3C.[Cu+2]")
"> 8.71 µM"
